The values you see were collected from the NIST ThermoML archive (doi:10.1016/j.jct.2016.09.007).

- Run parameters: 298.15 K; 93.2 kPa; Liquid; Frequency=3 MHz; Sing-around technique in a fixed-path interferometer
Readout type: speed of sound (m/s)

{"Molecule": "CCCCO [butan-1-ol]", "Readout units": "m/s", "speed of sound": 1239.7}
{"Molecule": "CCCC(=O)[O-].CCCC[NH3+] [n-butylammonium butanoate]", "Readout units": "m/s", "speed of sound": 1410.3}
{"Molecule": "CCCCCO [pentan-1-ol]", "Readout units": "m/s", "speed of sound": 1275.7}
{"Molecule": "CO [methanol]", "Readout units": "m/s", "speed of sound": 1102.5}
{"Molecule": "CCCO [propan-1-ol]", "Readout units": "m/s", "speed of sound": 1205.8}
{"Molecule": "CCO [ethanol]", "Readout units": "m/s", "speed of sound": 1143.8}
